biological target: T1, HLA-A*01:01 (human); assay: UV-ligand exchange, anti-b2m ELISA
T1 construct: MHC class I monomer first loaded with a UV-sensitive peptide (not identified) that is cleaved by UV irradiation and exchanged for the tested peptide; captured on streptavidin plates, detected with anti-β2m; also called peptide-receptive MHC molecules
property: peptide exchange yield

Example results:
>  <binder>
YRDPVFVSL

>  <peptide exchange yield>
20 to 50%

$$$$
>  <binder>
FHADSDDESF

>  <peptide exchange yield>
10 to 20%

$$$$
>  <binder>
NSNLKFLEV

>  <peptide exchange yield>
20 to 50%

$$$$
>  <binder>
VSERTGISY

>  <peptide exchange yield>
50 to 75%

$$$$
>  <binder>
LLKAKDILY

>  <peptide exchange yield>
20 to 50%

$$$$

Quick request: peptide exchange yield for each listed item, please.
1. PPEANSLQGALY
2. QAMPSWPTAAY
3. MTSTEQSLY
4. DTGYLQLYY
5. TSEISQNALMY
6. VTDIDELGK
7. VLDSLLAQY

Output:
["20 to 50%", "20 to 50%", "50 to 75%", "> 75%", "> 75%", "50 to 75%", "> 75%"]

Quick request: peptide exchange yield for each listed item, please.
1. HLKILSPIY
2. YADPSANRDLL
3. EIIRYIFAY
4. RLNGSVASY
5. GQRLDEAMISY
6. DSTDGCLLSF
7. VSELVTTGHY

Output:
1: 50 to 75%; 2: 20 to 50%; 3: 20 to 50%; 4: 20 to 50%; 5: 50 to 75%; 6: 20 to 50%; 7: 50 to 75%
